The measured values listed here are drawn from PubChem BioAssay (NCI).

Test system: HCC-2998 colon
test_name: NCI tumour cell line growth inhibition, 48 h
readout_name: TGI (µM)
One number for each entry, in µM.

Consider the reported TGI for these compounds:
Entry `COc1ccc2[nH]c3c(O)c(-c4c(C)cc5c([nH]c6ccc(OC)cc65)c4O)c(C)cc3c2c1` has what TGI?
6.99

Entry C=CCN1C(=O)[C@]2(SC1=S)[C@H](c1cccc(Cl)c1)CN(C)[C@]21C(=O)NC2C=CC(Cl)=C[C@H]21 (stereo not given in full) has what TGI?
19.1

Next:
Entry COc1ccc(NC(/C(C(=O)C(=O)/C=C(\O)c2ccccc2)=C(\O)c2ccccc2)c2ccc(OC)cc2)cc1 (stereo not given) has what TGI?
62.3
